Parameter Kd: see the listing below.
- system.under.test: TPMT*6 (Y180F) (Homo sapiens, UniProt P51580, Y180F)
- protocol.summary: ITC binding of SAM and ANS to TPMT*6
Answer format: numeric, µM implied, no suffix.

molecule	system.under.test	value.units	Kd
O=S(=O)(O)c1cccc2cccc(Nc3ccccc3)c12	TPMT*6 (Y180F) (Homo sapiens, UniProt P51580, Y180F)	µM	0.187

Now consider a different molecule.
Form field: reported Kd of C[S+](CC[C@H](N)C(=O)[O-])C[C@H]1O[C@@H](n2cnc3c(N)ncnc32)[C@H](O)[C@@H]1O (some centres unmarked)
1.8

====

Parameter pKd: see the listing below.
- system.under.test: TPMT*8 (R215H) (Homo sapiens, UniProt P51580, R215H)
- Sequence (P51580 1-245 R215H): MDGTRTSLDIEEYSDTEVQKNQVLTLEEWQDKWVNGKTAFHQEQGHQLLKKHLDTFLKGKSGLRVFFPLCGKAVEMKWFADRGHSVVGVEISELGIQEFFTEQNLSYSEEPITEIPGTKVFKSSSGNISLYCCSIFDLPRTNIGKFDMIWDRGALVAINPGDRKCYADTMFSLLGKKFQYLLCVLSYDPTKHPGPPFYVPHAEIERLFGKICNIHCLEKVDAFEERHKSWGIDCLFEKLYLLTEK
- protocol.summary: ITC binding of SAM and ANS to TPMT*8
pKd here is simply -log10 of the concentration when that concentration is written in mol/L.

molecule	system.under.test	pKd
O=S(=O)(O)c1cccc2cccc(Nc3ccccc3)c12 [ANS, 8-anilinonaphthalene-1-sulfonic acid]	TPMT*8 (R215H) (Homo sapiens, UniProt P51580, R215H)	6.69

Now consider a different molecule.
Which pKd is reported with TPMT*8 (R215H) (Homo sapiens, UniProt P51580, R215H) for this entry: C[S+](CC[C@H](N)C(=O)[O-])C[C@H]1O[C@@H](n2cnc3c(N)ncnc32)[C@H](O)[C@@H]1O (some centres unmarked) [SAM, S-adenosylmethionine] ?
5.82
